Attribution: paper PMC10786891

Target: T1, EsCas13d, nuclease-dead (Eubacterium siraeum, UniProt B0MS50, R295A;H300A;R849A;H854A)
T1 sequence: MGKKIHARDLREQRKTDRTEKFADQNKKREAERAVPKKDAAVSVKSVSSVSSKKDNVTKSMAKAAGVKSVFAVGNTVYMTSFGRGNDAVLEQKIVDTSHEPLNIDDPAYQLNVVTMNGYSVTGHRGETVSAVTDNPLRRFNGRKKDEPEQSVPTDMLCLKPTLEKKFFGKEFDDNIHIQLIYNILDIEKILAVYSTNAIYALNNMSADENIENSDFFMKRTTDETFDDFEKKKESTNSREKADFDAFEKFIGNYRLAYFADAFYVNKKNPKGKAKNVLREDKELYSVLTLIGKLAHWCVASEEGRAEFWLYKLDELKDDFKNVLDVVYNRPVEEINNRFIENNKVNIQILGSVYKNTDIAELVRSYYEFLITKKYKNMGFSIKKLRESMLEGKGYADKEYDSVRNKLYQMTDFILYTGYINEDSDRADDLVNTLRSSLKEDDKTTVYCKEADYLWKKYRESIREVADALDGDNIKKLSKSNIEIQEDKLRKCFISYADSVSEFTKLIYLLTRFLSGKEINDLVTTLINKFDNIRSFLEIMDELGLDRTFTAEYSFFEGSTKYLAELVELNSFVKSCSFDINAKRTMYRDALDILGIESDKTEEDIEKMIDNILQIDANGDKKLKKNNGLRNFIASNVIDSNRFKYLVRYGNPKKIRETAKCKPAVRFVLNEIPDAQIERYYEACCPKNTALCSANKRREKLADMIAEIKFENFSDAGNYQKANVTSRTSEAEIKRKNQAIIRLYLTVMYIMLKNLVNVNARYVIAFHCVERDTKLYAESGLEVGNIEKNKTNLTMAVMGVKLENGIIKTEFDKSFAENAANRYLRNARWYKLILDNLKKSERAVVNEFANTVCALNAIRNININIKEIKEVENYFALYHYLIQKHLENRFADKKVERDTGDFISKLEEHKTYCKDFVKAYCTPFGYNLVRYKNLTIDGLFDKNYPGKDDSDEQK
Assay: crRNA (strand 1, pre-loaded); Mg2+; 40 mM Tris-HCl pH 7.5, 150 mM NaCl, 6 mM MgCl2, 1 mM DTT, 0.1% Tween-20, 0.2 mg/ml BSA; 25 C; 10 min per concentration, then washed
Conditions: tags: His6-TwinStrep-SUMO cleaved; N-terminal SNAP kept (SNAP-Surface 488); label: 3' end held by stalled T7 RNA polymerase
Measured pKd accompanies every entry in the list below.
Units for pKd: none; it is -log10 of a concentration expressed in mol/L.

Example binders with recorded pKd:
binder	pKd
target 1 insA 3' of 3,insG 3' of 3 (mixed) RNA 1: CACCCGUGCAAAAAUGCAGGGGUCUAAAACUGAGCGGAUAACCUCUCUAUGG RNA 2: GGGAAUGGAUCCACAUCUACGAAUUCGUACCAUAGAGAGGUUAUCCGCUAGCACCGAGAUCGGAAGAGCACACGU	8.21
target 1 insU 3' of 18,insA 3' of 15 (mixed) RNA 1: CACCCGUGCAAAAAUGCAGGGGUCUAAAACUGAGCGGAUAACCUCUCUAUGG RNA 2: GGGAAUGGAUCCACAUCUACGAAUUCGUACCAUAUGAGAAGGUUAUCCGCUCACCGAGAUCGGAAGAGCACACGU	7.69

Problem: Requested read-out: pKd. Entry: target 1 insC 3' of 5,insG 3' of 4 (mixed) RNA 1: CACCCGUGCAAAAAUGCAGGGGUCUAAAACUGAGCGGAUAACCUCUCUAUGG RNA 2: GGGAAUGGAUCCACAUCUACGAAUUCGUACCAUAGAGAGGUUAUCCGCCGUCACCGAGAUCGGAAGAGCACACGU
Solution: 8.04
